Listed next: entries and their corresponding IC10.
tested on: FADU cells; test: CCK-8 cytotoxicity assay, determination of inhibitory concentrations in FADU cells; format: cell-based, human; details: 72 hr
Could you give me the number in nM? Just the number is fine.

Illustrative cases are given below, each with its answer.
>  <molecule>
O=c1[nH]cc(F)c(=O)[nH]1 [Compound 5-FU]

>  <measured.target>
FADU cells

>  <IC10, nM>
310

$$$$
>  <molecule>
CC(=O)O[C@@]12CO[C@@H]1C[C@H](O)[C@@]1(C)C(=O)[C@H](O)C3=C(C)[C@@H](OC(=O)[C@H](O)[C@@H](NC(=O)OC(C)(C)C)c4ccccc4)C[C@@](O)([C@@H](OC(=O)c4ccccc4)[C@H]21)C3(C)C [Docetaxel]

>  <measured.target>
FADU cells

>  <IC10, nM>
3

$$$$
>  <molecule>
N.N.[Cl][Pt][Cl] [Cisplatin]

>  <measured.target>
FADU cells

>  <IC10, nM>
250

$$$$

We now examine a further molecule.
### Prompt Item CN1CC[C@@H](c2c(O)cc(O)c3c(=O)cc(-c4ccccc4Cl)oc23)[C@@H]1CO.Cl (relative stereo) [Compound A] has what recorded IC10?
### Response 80

====

Listed next: entries and their corresponding pIC50.
tested on: Detroit-562 cells; test: CCK-8 cytotoxicity assay, determination of inhibitory concentrations in Detroit-562 cells; format: cell-based; details: Homo sapiens, 72 hr
Value format note: pIC50 is -log10 of concentration (mol/L); just state the number.

>  <compound>
O=c1[nH]cc(F)c(=O)[nH]1 [Compound 5-FU]

>  <pIC50>
5.20

$$$$
>  <compound>
C#Cc1cccc(Nc2ncnc3cc(OCCOC)c(OCCOC)cc23)c1 [Erlotinib]

>  <pIC50>
5.64

$$$$
>  <compound>
CC(=O)O[C@@]12CO[C@@H]1C[C@H](O)[C@@]1(C)C(=O)[C@H](O)C3=C(C)[C@@H](OC(=O)[C@H](O)[C@@H](NC(=O)OC(C)(C)C)c4ccccc4)C[C@@](O)([C@@H](OC(=O)c4ccccc4)[C@H]21)C3(C)C [Docetaxel]

>  <pIC50>
6.07

$$$$
>  <compound>
CS(=O)(=O)CCNCc1ccc(-c2ccc3ncnc(Nc4ccc(OCc5cccc(F)c5)c(Cl)c4)c3c2)o1 [Lapatinib]

>  <pIC50>
5.41

$$$$
>  <compound>
CNC(=O)c1cc(Oc2ccc(NC(=O)Nc3ccc(Cl)c(C(F)(F)F)c3)cc2)ccn1.Cc1ccc(S(=O)(=O)O)cc1 [Sorafenib]

>  <pIC50>
5.21

$$$$

We now examine a further compound.
### Prompt Item CN1CC[C@@H](c2c(O)cc(O)c3c(=O)cc(-c4ccc(C(F)(F)F)cc4Cl)oc23)[C@@H]1CO.Cl [Compound B, hydrochloride] has what recorded pIC50?
### Response 4.85

====

Listed next: entries and their corresponding IC70.
test system: SCC-25 cells; experiment: CCK-8 cytotoxicity assay, determination of inhibitory concentrations in SCC-25 cells; type: cell-based; conditions: SCC-25 cells; 72 hr
Could you give me the number in µM? Just the number is fine.

Illustrative cases are given below, each with its answer.
>  <molecule>
CNC(=O)c1cc(Oc2ccc(NC(=O)Nc3ccc(Cl)c(C(F)(F)F)c3)cc2)ccn1.Cc1ccc(S(=O)(=O)O)cc1 [Sorafenib]

>  <units.label>
µM

>  <numeric.value>
6.8

$$$$
>  <molecule>
CN1CC[C@@H](c2c(O)cc(O)c3c(=O)cc(-c4ccc(C(F)(F)F)cc4Cl)oc23)[C@@H]1CO.Cl [Compound B]

>  <units.label>
µM

>  <numeric.value>
4.8

$$$$
>  <molecule>
CS(=O)(=O)CCNCc1ccc(-c2ccc3ncnc(Nc4ccc(OCc5cccc(F)c5)c(Cl)c4)c3c2)o1 [Lapatinib]

>  <units.label>
µM

>  <numeric.value>
3.3

$$$$

### Prompt Item CN1CC[C@@H](c2c(O)cc(O)c3c(=O)cc(-c4ccccc4Cl)oc23)[C@@H]1CO.Cl (relative stereo) [Compound A] has what recorded IC70?
### Response 4.1

====

tested on: FADU cells
property: cytotoxicity (%)
Could you give me the number in %? Just the number is fine.

### Prompt API: value(readout=cytotoxicity, system=FADU cells) for record CN1CC[C@@H](c2c(O)cc(O)c3c(=O)cc(-c4ccccc4Cl)oc23)[C@@H]1CO.Cl (relative stereo) [Compound A, hydrochloride]
### Response 18

====

system: FADU cells; test: CCK-8 cytotoxicity assay, determination of inhibitory concentrations in FADU cells; type: cell-based, human; details: Homo sapiens, 72 hr
property: pIC50
Value format note: pIC50 is -log10 of concentration (mol/L); just state the number.

Illustrative cases are given below, each with its answer.
>  <compound>
CNC(=O)c1cc(Oc2ccc(NC(=O)Nc3ccc(Cl)c(C(F)(F)F)c3)cc2)ccn1.Cc1ccc(S(=O)(=O)O)cc1

>  <numeric.value>
5.08

$$$$
>  <compound>
CC(=O)O[C@@]12CO[C@@H]1C[C@H](O)[C@@]1(C)C(=O)[C@H](O)C3=C(C)[C@@H](OC(=O)[C@H](O)[C@@H](NC(=O)OC(C)(C)C)c4ccccc4)C[C@@](O)([C@@H](OC(=O)c4ccccc4)[C@H]21)C3(C)C

>  <numeric.value>
6.80

$$$$
>  <compound>
O=c1[nH]cc(F)c(=O)[nH]1

>  <numeric.value>
4.94

$$$$
>  <compound>
CS(=O)(=O)CCNCc1ccc(-c2ccc3ncnc(Nc4ccc(OCc5cccc(F)c5)c(Cl)c4)c3c2)o1

>  <numeric.value>
5.59

$$$$

### Prompt Item C#Cc1cccc(Nc2ncnc3cc(OCCOC)c(OCCOC)cc23)c1 has what recorded pIC50?
### Response 4.99

### Prompt Item CN1CC[C@@H](c2c(O)cc(O)c3c(=O)cc(-c4ccc(C(F)(F)F)cc4Cl)oc23)[C@@H]1CO.Cl [Compound B, hydrochloride] has what recorded pIC50?
### Response 5.39

====

system: FADU cells; assay: CCK-8 cytotoxicity assay, determination of inhibitory concentrations in FADU cells; assay type: cell-based, human; details: Homo sapiens, 72 hr
Rule: measured IC90 below 40 µM gets rule met; anything equal to or greater than 40 µM gets rule not met.

The examples below pair each entry with its known result.
>  <compound>
CC(=O)O[C@@]12CO[C@@H]1C[C@H](O)[C@@]1(C)C(=O)[C@H](O)C3=C(C)[C@@H](OC(=O)[C@H](O)[C@@H](NC(=O)OC(C)(C)C)c4ccccc4)C[C@@](O)([C@@H](OC(=O)c4ccccc4)[C@H]21)C3(C)C

>  <cat>
rule met

$$$$
>  <compound>
CS(=O)(=O)CCNCc1ccc(-c2ccc3ncnc(Nc4ccc(OCc5cccc(F)c5)c(Cl)c4)c3c2)o1

>  <cat>
rule met

$$$$
>  <compound>
C#Cc1cccc(Nc2ncnc3cc(OCCOC)c(OCCOC)cc23)c1

>  <cat>
rule not met

$$$$

### Prompt For this compound, is IC90 lower than 40 µM? CNC(=O)c1cc(Oc2ccc(NC(=O)Nc3ccc(Cl)c(C(F)(F)F)c3)cc2)ccn1.Cc1ccc(S(=O)(=O)O)cc1
### Response rule met

### Prompt For this compound, is IC90 lower than 40 µM? CN1CC[C@@H](c2c(O)cc(O)c3c(=O)cc(-c4ccc(C(F)(F)F)cc4Cl)oc23)[C@@H]1CO.Cl [Compound B, hydrochloride]
### Response rule met

### Prompt For this compound, is IC90 lower than 40 µM? O=c1[nH]cc(F)c(=O)[nH]1
### Response rule met

====

tested on: SCC-25 cells; assay: CCK-8 cytotoxicity assay, determination of inhibitory concentrations in SCC-25 cells; format: cell-based; conditions: SCC-25 cells; 72 hr
property: IC30 (nM)
Could you give me the number in nM? Just the number is fine.

Illustrative cases are given below, each with its answer.
>  <compound>
CN1CC[C@@H](c2c(O)cc(O)c3c(=O)cc(-c4ccccc4Cl)oc23)[C@@H]1CO.Cl (relative stereo)

>  <measured.target>
SCC-25 cells

>  <numeric.value>
100

$$$$
>  <compound>
CNC(=O)c1cc(Oc2ccc(NC(=O)Nc3ccc(Cl)c(C(F)(F)F)c3)cc2)ccn1.Cc1ccc(S(=O)(=O)O)cc1

>  <measured.target>
SCC-25 cells

>  <numeric.value>
180

$$$$
>  <compound>
CN1CC[C@@H](c2c(O)cc(O)c3c(=O)cc(-c4ccc(C(F)(F)F)cc4Cl)oc23)[C@@H]1CO.Cl

>  <measured.target>
SCC-25 cells

>  <numeric.value>
200

$$$$

We now examine a further compound.
### Prompt Item CS(=O)(=O)CCNCc1ccc(-c2ccc3ncnc(Nc4ccc(OCc5cccc(F)c5)c(Cl)c4)c3c2)o1 has what recorded IC30?
### Response 200

// provenance: patent US10980776B2
